target: Human SARS Coronavirus Spike S1 Subunit Protein (His Tag) (Sino 40150-V08B1) (Human SARS Coronavirus, UniProt P59594 14-667); experiment: Luminex bead binding, supernatant
QUANTITY_NAME: Binding signal (MFI)

Recorded Binding signal (MFI), per entry:
| BINDER | Binding signal (MFI) |
| --- | --- |
| mAb10964 (antibody, V domains shown) VH: QVQLQESGPGLVKPSETLSLTCTVSGGSINNYYWIWIRQPPGKGLEWIGYIYHSGSTNYNPSLKSRVTISVDTSKNQFSLKVSSVTAADTAVYYCANMVRGVYEDDYWGQGTLVTVSS VL: DIQMTQSPSSLSASVGDRVTITCRASQSISNYLNWYQQKPGKAPKLLIFAASSLRSGVPSRFSGSGSGTDFTLTISSLHPEDFATYYCQQNYNTPLTFGPGTKVDIKR | 5190 MFI |
| mAb10967 (antibody, V domains shown) VH: EVQLVESGGGLVQPGGSLRLSCAASGFTVSSNYMSWVRQAPGKGLEWVSVIYPGGSTFYADSVKGRFTISRDNSKNTLYLQMNSLRAEDTAVYYCARDQRDFAWGQGTLVTVSS VL: DIQMTQSPSSLSASVGDRVTITCQASQDISNYLNWYQQKPGKAPKLLIYDASNLETGVPSRFSGSGSGTDFTFTISGLQPEDIATYYCQQYDNLPPTFGQGTRLEIKR | 21 MFI |

Incoming: Need Binding signal (MFI), item mAb10955 (antibody, V domains shown) VH: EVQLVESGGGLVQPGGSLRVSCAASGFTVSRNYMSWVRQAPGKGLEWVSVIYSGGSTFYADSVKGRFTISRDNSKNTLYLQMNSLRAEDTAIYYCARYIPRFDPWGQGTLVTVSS VL: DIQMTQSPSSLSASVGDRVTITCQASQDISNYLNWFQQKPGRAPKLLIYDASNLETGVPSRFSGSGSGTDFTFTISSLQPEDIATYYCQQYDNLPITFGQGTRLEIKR
Outgoing: 14 MFI
